Provide the reported remaining activity at 1 µM of each item.
biological target: MARK2 (Homo sapiens, UniProt Q7KZI7); assay: Kinase profiling (radiometric filter-binding); assay type: biochemical; details: MARK2, 1 µM inhibitor; read-out: Residual activity, %
Sequence (Q7KZI7 whole entry): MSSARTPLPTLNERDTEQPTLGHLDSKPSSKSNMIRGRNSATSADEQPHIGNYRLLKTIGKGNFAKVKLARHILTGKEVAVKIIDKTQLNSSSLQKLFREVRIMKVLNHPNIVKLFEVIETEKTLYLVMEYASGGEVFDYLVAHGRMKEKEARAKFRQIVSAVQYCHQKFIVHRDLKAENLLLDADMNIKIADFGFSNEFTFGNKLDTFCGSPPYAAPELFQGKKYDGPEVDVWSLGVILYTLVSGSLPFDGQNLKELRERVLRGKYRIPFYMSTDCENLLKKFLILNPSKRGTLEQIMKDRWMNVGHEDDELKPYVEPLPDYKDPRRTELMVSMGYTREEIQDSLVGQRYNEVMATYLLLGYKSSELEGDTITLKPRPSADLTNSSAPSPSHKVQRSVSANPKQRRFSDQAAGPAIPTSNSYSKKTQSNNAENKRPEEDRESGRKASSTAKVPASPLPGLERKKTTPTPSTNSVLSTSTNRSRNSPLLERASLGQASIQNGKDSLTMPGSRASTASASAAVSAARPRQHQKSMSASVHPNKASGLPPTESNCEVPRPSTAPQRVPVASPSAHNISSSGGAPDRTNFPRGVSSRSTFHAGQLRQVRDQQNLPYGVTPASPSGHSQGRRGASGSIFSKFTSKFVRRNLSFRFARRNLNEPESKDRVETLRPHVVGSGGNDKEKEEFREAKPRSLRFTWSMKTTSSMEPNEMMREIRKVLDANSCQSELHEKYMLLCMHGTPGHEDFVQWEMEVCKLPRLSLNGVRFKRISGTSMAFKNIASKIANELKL
Square brackets hold non-standard residues; d marks the D form. Peptide text beside a SMILES is read from it. * marks the point of attachment. X3 = O=C(CCCCCNCc1nc2c(sc3cc(Br)cnc32)c(=O)[nH]1)*
Give bare numbers, in %.

Here is how some molecules turned out for remaining activity at 1 µM.
N=C(N)NCCC[C@@H](NC(=O)CNC(=O)[C@@H](CCCNC(=N)N)NC(=O)[C@@H](CCCNC(=N)N)NC(=O)CCCCCCCNCc1nc2c(sc3ccc(Br)cc32)c(=O)[nH]1)C(=O)N[C@H](CCCCN)C(N)=O [Compound 2, BBTP-Aoc-(D-Arg)2-Gly-D-Arg-D-Lys-NH2] = 107
N=C(N)NCCC[C@@H](NC(=O)CNC(=O)[C@@H](CCCNC(=N)N)NC(=O)[C@@H](CCCNC(=N)N)NC(=O)Cn1cc(CNCc2nc3c(sc4ccc(Br)cc43)c(=O)[nH]2)nn1)C(=O)N[C@H](CCCCN)C(N)=O [Compound 3, BBTP-Amt-(D-Arg)2-Gly-D-Arg-D-Lys-NH2] = 79
N=C(N)NCCC[C@@H](NC(=O)CNC(=O)[C@@H](CCCNC(=N)N)NC(=O)[C@@H](CCCNC(=N)N)NC(=O)CCCCCCCNCc1nc2c(sc3cc(Br)cnc32)c(=O)[nH]1)C(=O)N[C@H](CCCCN)C(N)=O [Compound 1, BPTP-Aoc-(D-Arg)2-Gly-D-Arg-D-Lys-NH2] = 106

// for each molecule below, give its remaining activity at 1 µM
1. N=C(N)NCCC[C@@H](NC(=O)CCCCCNCc1nc2c(sc3cc(Br)cnc32)c(=O)[nH]1)C(=O)N[C@H](CCCNC(=N)N)C(=O)N[C@H](CCCNC(=N)N)C(=O)N[C@H](CCCNC(=N)N)C(=O)N[C@H](CCCNC(=N)N)C(=O)N[C@H](CCCNC(=N)N)C(=O)N[C@H](CCCCN)C(N)=O [ARC-3126, BPTP-Ahx-(D-Arg)6-D-Lys-NH2] (X3-[dR][dR][dR][dR][dR][dR][dK]-NH2)
2. N=C(N)NCCC[C@@H](NC(=O)CCCCCNC(=O)Cn1cnc2c(I)c(I)c(I)c(I)c21)C(=O)N[C@H](CCCNC(=N)N)C(=O)N[C@H](CCCNC(=N)N)C(=O)N[C@H](CCCNC(=N)N)C(=O)N[C@H](CCCNC(=N)N)C(=O)N[C@H](CCCNC(=N)N)C(=O)N[C@H](CCCCN)C(N)=O [ARC-3125, TIBI-CH2-C(=O)-Ahx-(D-Arg)6-D-Lys-NH2]

1: 103; 2: 86

====

Provide the reported remaining activity at 1 µM of each item.
target: PAK2 (Homo sapiens); experiment: Kinase profiling (radiometric filter-binding); format: biochemical; conditions: PAK2, 1 µM inhibitor; read-out: Residual activity, %
Sequence (Q13177 whole entry): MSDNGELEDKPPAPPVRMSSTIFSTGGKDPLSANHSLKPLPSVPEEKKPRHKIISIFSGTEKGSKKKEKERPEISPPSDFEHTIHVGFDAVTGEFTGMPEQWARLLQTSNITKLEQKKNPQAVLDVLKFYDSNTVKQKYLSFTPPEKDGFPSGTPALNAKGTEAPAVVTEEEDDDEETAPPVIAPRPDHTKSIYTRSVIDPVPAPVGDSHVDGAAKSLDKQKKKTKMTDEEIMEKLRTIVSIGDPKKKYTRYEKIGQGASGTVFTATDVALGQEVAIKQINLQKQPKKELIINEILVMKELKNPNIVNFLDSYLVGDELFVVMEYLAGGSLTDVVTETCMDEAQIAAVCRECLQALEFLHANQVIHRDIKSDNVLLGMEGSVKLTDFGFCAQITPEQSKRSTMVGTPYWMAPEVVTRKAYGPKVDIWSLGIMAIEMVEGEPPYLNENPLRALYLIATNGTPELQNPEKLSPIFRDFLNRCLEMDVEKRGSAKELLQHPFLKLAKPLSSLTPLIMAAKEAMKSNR
Square brackets hold non-standard residues; d marks the D form. Peptide text beside a SMILES is read from it. * marks the point of attachment. X3 = O=C(CCCCCNCc1nc2c(sc3cc(Br)cnc32)c(=O)[nH]1)*
Give bare numbers, in %.

N=C(N)NCCC[C@@H](NC(=O)CNC(=O)[C@@H](CCCNC(=N)N)NC(=O)[C@@H](CCCNC(=N)N)NC(=O)Cn1cc(CNCc2nc3c(sc4ccc(Br)cc43)c(=O)[nH]2)nn1)C(=O)N[C@H](CCCCN)C(N)=O = 91

// for each compound below, give its remaining activity at 1 µM
1. N=C(N)NCCC[C@@H](NC(=O)CCCCCNC(=O)Cn1cnc2c(I)c(I)c(I)c(I)c21)C(=O)N[C@H](CCCNC(=N)N)C(=O)N[C@H](CCCNC(=N)N)C(=O)N[C@H](CCCNC(=N)N)C(=O)N[C@H](CCCNC(=N)N)C(=O)N[C@H](CCCNC(=N)N)C(=O)N[C@H](CCCCN)C(N)=O
2. N=C(N)NCCC[C@@H](NC(=O)CNC(=O)[C@@H](CCCNC(=N)N)NC(=O)[C@@H](CCCNC(=N)N)NC(=O)CCCCCCCNCc1nc2c(sc3ccc(Br)cc32)c(=O)[nH]1)C(=O)N[C@H](CCCCN)C(N)=O

29
100

// for each compound below, give its remaining activity at 1 µM
1. N=C(N)NCCC[C@@H](NC(=O)CCCCCNCc1nc2c(sc3cc(Br)cnc32)c(=O)[nH]1)C(=O)N[C@H](CCCNC(=N)N)C(=O)N[C@H](CCCNC(=N)N)C(=O)N[C@H](CCCNC(=N)N)C(=O)N[C@H](CCCNC(=N)N)C(=O)N[C@H](CCCNC(=N)N)C(=O)N[C@H](CCCCN)C(N)=O [ARC-3126, BPTP-Ahx-(D-Arg)6-D-Lys-NH2] (X3-[dR][dR][dR][dR][dR][dR][dK]-NH2)
2. N=C(N)NCCC[C@@H](NC(=O)CNC(=O)[C@@H](CCCNC(=N)N)NC(=O)[C@@H](CCCNC(=N)N)NC(=O)CCCCCCCNCc1nc2c(sc3cc(Br)cnc32)c(=O)[nH]1)C(=O)N[C@H](CCCCN)C(N)=O

1. 72
2. 99
